- method.notes: in vitro
- condition.context: bovine
Listing of recorded CC50 by entry.

C[C@H]1CC[C@H]2C(C)(C)[C@H](OS(=O)(=O)c3ccccc3)CC[C@]23Oc2c(c(O)cc4c2CNC4=O)C[C@]13C [Compound (13d)]: 10 µg/mL
C[C@H]1NC(=O)c2cc(O)c3c(c21)O[C@@]12CC[C@H](O)C(C)(C)[C@@H]1CC[C@H](C)[C@@]2(C)C3 [Compound (67b)]: 25 to 50 µg/mL
C[C@H]1CC[C@H]2C(C)(C)[C@@H](O)CC[C@]23Oc2c(c(OP(=O)(O)O)cc4c2CNC4=O)C[C@]13C.[Na] [Compound (59a), monosodium salt]: > 10 µg/mL
CC(=O)O[C@H]1C[C@@]23Oc4c(c(O)cc5c4CNC5=O)C[C@]2(C)[C@@H](C)CC[C@H]3C(C)(C)[C@H]1O [Compound (50b)]: > 10 µg/mL

Return the recorded CC50 value; entry: CCCCN1Cc2c(cc(O)c3c2O[C@@]24CC[C@H](O)C(C)(C)[C@@H]2CC[C@H](C)[C@@]4(C)C3)C1=O [Compound (28b)]
2.5 µg/mL

Answer with reported CC50 of C[C@H]1CC[C@H]2C(C)(C)[C@@H](O)[C@@H](O)C[C@]23Oc2c(c(O)cc4c2CNC4=O)C[C@]13C [Compound (50a)]
> 40 µg/mL
